target: T1, biotinylated recombinant human FAP (human, UniProt Q12884 26-760, biotinylated)
T1 construct: also called biotinylated human FAP
assayOverview: SPR (Biacore)
parameterMeasured: kon (M⁻¹ s⁻¹)
Numbers only, in M⁻¹ s⁻¹.

Form field: reported kon of P1AE1689_Fab, humanized anti-FAP clone 212 variant VH1G1a/VL1G1a (Fab, V domains shown, Fab) VH: QVQLVQSGAEVKKPGASVKVSCKASGYTLTDYNMDWVRQAPGQGLEWIGDIYPNTGGTIYNQKFKGRVTMTIDTSTSTVYMELSSLRSEDTAVYYCTRFRGIHYAMDYWGQGTTVTVSS VL: EIVLTQSPATLSLSPGERATLSCRASESVDNYGLSFINWFQQKPGQAPRLLIYGTSNRGSGIPARFSGSGSGTDFTLTISSLEPEDFAVYFCQQSNEVPYTFGGGTKVEIK
443000
